All values here come from PubChem BioAssay (NCI).

System: HOP-92 NSCLC
Assay: NCI tumour cell line growth inhibition, 48 h
quantity: TGI

The following compounds have reported results that may help.
1. O=C(CSSCC(=O)c1ccc(Cl)cc1)c1ccc(Cl)cc1 = 19.4 µM
2. COc1ccc(-c2cn(C)c3c2-n2cccc2C3=O)cc1O = > 100 µM
3. Nc1nnc(N)n1N = > 100 µM
4. CC(=O)C1=C(C)N(c2ccccc2)C2(O)C3=C(C(=O)c4ccccc4C3=O)C(O)=CC12Cl (stereo unspecified) = 30 µM
5. O=C(O)/C=C/c1c2ccc(=O)c(O)c-2oc2c(O)c(O)ccc12 = > 100 µM

# next compound below
Req: Recall and state the measured TGI for O=[N+]([O-])c1ccccc1/C=N\NC(=S)N/N=C/c1ccccc1[N+](=O)[O-] .
Resp: > 100 µM
